System: DU145
Assay: Euclidean distance of Cell Painting phenotypic profile (signed KS, 77 features) to DMSO centroid (dimensionless distance); higher = stronger phenotypic change vs DMSO (phenoactivity)
Details: 48 h; 5 or 10 uM (library dependent)
Counter-ions that a name gives are not always drawn.
Euclidean distance values by entry
Readout label: Euclidean distance

{"Molecule": "COC[C@H]1OC(=O)c2coc3c2[C@@]1(C)C1=C(C3=O)[C@@H]2CCC(=O)[C@@]2(C)C[C@H]1OC(C)=O", "Measurement target": "DU145", "Value reported": 1.2}
{"Molecule": "C=C(C)[C@H]1Cc2c(ccc3c2O[C@@H]2COc4cc(OC)c(OC)cc4[C@@H]2C3=O)O1", "Measurement target": "DU145", "Value reported": 3.54}
{"Molecule": "COc1ccc2c(c1)[C@]13CCCC[C@@H]1[C@H](C2)N(C)CC3 [Dextromethorphan hydrobromide hydrate]", "Measurement target": "DU145", "Value reported": 0.854}
{"Molecule": "C[C@]12CC[C@H](O)CC1=CC[C@@H]1[C@@H]2CC[C@]2(C)C(=O)CC[C@@H]12 [Dehydroepiandrosterone (DHEA)]", "Measurement target": "DU145", "Value reported": 1.46}
{"Molecule": "COc1ccc(C=O)cc1", "Measurement target": "DU145", "Value reported": 0.627}
{"Molecule": "N#Cc1nn(-c2c(Cl)cc(C(F)(F)F)cc2Cl)c(N)c1[S+]([O-])C(F)(F)F (configuration not stated)", "Measurement target": "DU145", "Value reported": 0.897}
{"Molecule": "NC(=O)CN1CC(c2ccccc2)CC1=O (configuration not stated)", "Measurement target": "DU145", "Value reported": 0.789}
{"Molecule": "O=[N+]([O-])O[C@@H]1CO[C@H]2[C@@H]1OC[C@@H]2O [Isosorbide Mononitrate]", "Measurement target": "DU145", "Value reported": 0.879}
{"Molecule": "CC(=O)OCC1=C(C(=O)O)N2C(=O)[C@@H](N)[C@H]2SC1", "Measurement target": "DU145", "Value reported": 1.16}
{"Molecule": "CNC(C)Cc1ccccc1OC (configuration not stated) [Methoxyphenamine Hydrochloride]", "Measurement target": "DU145", "Value reported": 0.725}
{"Molecule": "Cn1c(COP(=O)(NCCBr)NCCBr)cnc1[N+](=O)[O-] [Evofosfamide (TH-302)]", "Measurement target": "DU145", "Value reported": 0.904}
{"Molecule": "CC(CCc1ccccc1)NC(C)C(O)c1ccc(O)cc1 (configuration not stated) [Nylidrin Hydrochloride]", "Measurement target": "DU145", "Value reported": 1.38}
{"Molecule": "C#C[C@]1(O)C=C[C@H]2[C@@H]3CCC4=CC(=O)CC[C@@H]4[C@H]3CC[C@@]21CC", "Measurement target": "DU145", "Value reported": 2.08}
{"Molecule": "CCC1=C[C@H]2CN3CCc4c([nH]c5ccccc45)[C@](C(=O)OC)(C2)[C@H]13", "Measurement target": "DU145", "Value reported": 0.692}
{"Molecule": "O=C([O-])C(Cl)Cl.[Na+] [Sodium dichloroacetate (DCA)]", "Measurement target": "DU145", "Value reported": 0.544}
{"Molecule": "CCNC(=O)C[C@@H]1N=C(c2ccc(Cl)cc2)c2cc(OC)ccc2-n2c(C)nnc21", "Measurement target": "DU145", "Value reported": 1.76}
{"Molecule": "S=C=NCc1ccccc1 [Benzyl isothiocyanate]", "Measurement target": "DU145", "Value reported": 3.41}
{"Molecule": "NCCCNCCSP(=O)(O)O", "Measurement target": "DU145", "Value reported": 1.66}
{"Molecule": "O=C/C=C/c1ccccc1", "Measurement target": "DU145", "Value reported": 0.988}
{"Molecule": "CN1CCC(c2c[nH]c3ccc(O)cc23)CC1", "Measurement target": "DU145", "Value reported": 1.17}
{"Molecule": "CC[C@@H](C(N)=O)N1CCCC1=O", "Measurement target": "DU145", "Value reported": 0.591}
{"Molecule": "CC1(C)S[C@@H]2[C@H](N)C(=O)N2[C@H]1C(=O)O", "Measurement target": "DU145", "Value reported": 1.01}
{"Molecule": "NC[C@H](CC(=O)O)c1ccc(Cl)cc1 [(R)-baclofen]", "Measurement target": "DU145", "Value reported": 0.675}
{"Molecule": "CCCN1CCO[C@@H]2c3cc(O)ccc3OC[C@H]21", "Measurement target": "DU145", "Value reported": 0.762}
{"Molecule": "C#C[C@]1(OC(=O)CCCCCC)CC[C@H]2[C@@H]3CCC4=CC(=O)CC[C@@H]4[C@H]3CC[C@@]21C [Norethisterone Enanthate]", "Measurement target": "DU145", "Value reported": 3.85}
{"Molecule": "c1ccc2c(c1)Sc1ccccc1N2CC1CN2CCC1CC2 (configuration not stated)", "Measurement target": "DU145", "Value reported": 1.35}
{"Molecule": "O=C(O)CCCc1ccc(N(CCCl)CCCl)cc1", "Measurement target": "DU145", "Value reported": 0.964}
{"Molecule": "COc1cc2c(c(OC)c1OC)-c1ccc(OC)c(=O)cc1[C@@H](NC(C)=O)CC2", "Measurement target": "DU145", "Value reported": 4.54}
{"Molecule": "COc1ccc2[nH]cc(CCN)c2c1", "Measurement target": "DU145", "Value reported": 0.758}
{"Molecule": "CC(C)[C@H](N)C(=O)N1CCC[C@H]1B(O)O", "Measurement target": "DU145", "Value reported": 1.12}
{"Molecule": "COC(=O)C1=CCCN(C)C1 [Arecoline HBr]", "Measurement target": "DU145", "Value reported": 1.03}
{"Molecule": "COc1ccc2c(c1)[nH]c1c(C)nccc12 [Harmine hydrochloride]", "Measurement target": "DU145", "Value reported": 1.13}
{"Molecule": "COC(=O)[C@@H](N)CCCNC(=N)N[N+](=O)[O-]", "Measurement target": "DU145", "Value reported": 0.775}
{"Molecule": "C[C@]12CC[C@H](O)C[C@H]1CC[C@@H]1[C@@H]2C[C@@H](O)[C@]2(C)[C@@H](C3=CC(=O)OC3)CC[C@]12O", "Measurement target": "DU145", "Value reported": 7.21}
{"Molecule": "C[C@H]1CCC/C=C/[C@@H]2C[C@H](O)C[C@H]2[C@H](O)/C=C/C(=O)O1", "Measurement target": "DU145", "Value reported": 4.53}
{"Molecule": "CC(C)(C)NCC(O)c1ccccc1Cl (configuration not stated) [Tulobuterol hydrochloride]", "Measurement target": "DU145", "Value reported": 0.82}
{"Molecule": "CCCCCc1cc(O)cc(O)c1", "Measurement target": "DU145", "Value reported": 0.801}
